Data origin: patent US20190201491A1

target: beta Klotho and FGFR1c (Fibroblast Growth Factor Receptor isoform 1c) expressed on the cell surface of a proprietary stable cell line (HEK293); assay: cell-based or functional assay
[ ]: non-standard residue; d: D form. Phe(4-Ac) = CC(=O)c1ccc(C[C@H](N)C(=O)O)cc1
Assay metric: Average Fold Loss Potency Relative to bFGF-21-Q108-30KPEG, Elk1 luciferase reporter assay (fold)
Respond numerically; units are fold and should not be typed.

Average Fold Loss Potency Relative to bFGF-21-Q108-30KPEG, Elk1 luciferase reporter assay for bFGF-21-Q108-30KPEG G170S (ligand) HPIPDSSPLLQFGGQVRQRYLYTDDAQETEAHLEIRADGTVVGAARQSPESLLELKALKPGVIQILGVKTSRFLCQGPDGKLYGSLHFDPKACSFRELLLEDGYNVY[Phe(4-Ac)](PEG 30 kDa)SETLGLPLRLPPQRSSNRDPAPRGPARFLPLPGLPAAPPDPPGILAPEPPDVGSSDPLSMVSPSYGRSPSYTS ?
0.8
